# STUDY SYSTEM: human MetAP2 (Homo sapiens, UniProt P50579)
# Construct: made in house; host or cells: Sf9 insect cells (baculovirus)
# Sequence (P50579 whole entry): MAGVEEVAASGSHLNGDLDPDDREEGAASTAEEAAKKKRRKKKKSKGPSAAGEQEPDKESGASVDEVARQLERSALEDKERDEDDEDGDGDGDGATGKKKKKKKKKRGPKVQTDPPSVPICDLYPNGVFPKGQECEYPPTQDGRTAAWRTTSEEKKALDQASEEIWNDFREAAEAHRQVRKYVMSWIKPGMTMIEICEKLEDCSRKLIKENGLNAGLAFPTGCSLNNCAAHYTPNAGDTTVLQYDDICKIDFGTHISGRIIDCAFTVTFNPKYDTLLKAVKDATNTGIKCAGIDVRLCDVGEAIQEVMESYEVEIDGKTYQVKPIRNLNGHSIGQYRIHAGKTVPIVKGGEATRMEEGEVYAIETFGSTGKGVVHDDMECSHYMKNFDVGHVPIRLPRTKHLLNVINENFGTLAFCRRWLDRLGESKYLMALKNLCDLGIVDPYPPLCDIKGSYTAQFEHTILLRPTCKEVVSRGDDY
# ASSAY OVERVIEW: MetAP2 enzymatic screening test (isolated enzyme, Met-Pro-Arg-pNa substrate, absorbance at 405 nm)
# Format: biochemical
# CONDITION LABEL: read-out: % inhibition hMETAP2 at 100 nM
Recorded inhibition at 0.1 µM values for a group of molecules are listed next.
Express it in %; write the number only.

Consider the following illustrative entries.
MOLECULE: O=C(c1ccc(-c2ccc3c4[nH]ncc4c(=O)n(CC(F)(F)F)c3c2)cn1)N1CCOCC1 [Compound 141]
inhibition at 0.1 µM (%): 44
--
MOLECULE: COc1cc(C)c(-c2ccc3c4[nH]ncc4c(=O)n(CC(F)(F)F)c3c2)cn1 [Compound 161]
inhibition at 0.1 µM (%): 39
--
MOLECULE: CC(C)c1ncncc1-c1ccc2c3[nH]ncc3c(=O)n(CC(F)(F)F)c2c1 [Compound 162]
inhibition at 0.1 µM (%): 38

stdin: Give the reported inhibition at 0.1 µM for CCn1c(=O)c2cn[nH]c2c2ccc(-c3cccc(C(=O)NCCOC)c3)cc21 [Compound 39] (system: human MetAP2 (Homo sapiens, UniProt P50579)).
stdout: 60

stdin: Give the reported inhibition at 0.1 µM for CCn1c(=O)c2cn[nH]c2c2ccc(-c3ccc(F)c(C(N)=O)c3)cc21 [Compound 36] (system: human MetAP2 (Homo sapiens, UniProt P50579)).
stdout: 61

stdin: Give the reported inhibition at 0.1 µM for COc1ncc(-c2ccc3c4[nH]ncc4c(=O)n(CC(F)(F)F)c3c2)c(N(C)C)n1 [Compound 149] (system: human MetAP2 (Homo sapiens, UniProt P50579)).
stdout: 42

* * *

# STUDY SYSTEM: human MetAP2 (Homo sapiens)
# Construct: made in house; host or cells: Sf9 insect cells (baculovirus)
# ASSAY OVERVIEW: MetAP2 enzymatic screening test (isolated enzyme, Met-Pro-Arg-pNa substrate, absorbance at 405 nm)
# Format: biochemical
# CONDITION LABEL: read-out: % inhibition hMETAP2 at 100 nM
Recorded inhibition at 0.1 µM values for a group of compounds are listed next.
Express it in %; write the number only.

Consider the following illustrative entries.
COMPOUND: Cc1cc(-n2cnnc2)ncc1-c1ccc2c3[nH]ncc3c(=O)n(CC(F)(F)F)c2c1
ENDPOINT NAME: inhibition at 0.1 µM
REPORTED RESULT: 44
--
COMPOUND: O=c1c2cn[nH]c2c2ccc(-c3ccc(CO)cn3)cc2n1CC(F)(F)F
ENDPOINT NAME: inhibition at 0.1 µM
REPORTED RESULT: 41
--
COMPOUND: Cc1cnc(F)c(-c2ccc3c4[nH]ncc4c(=O)n(CC(F)(F)F)c3c2)c1
ENDPOINT NAME: inhibition at 0.1 µM
REPORTED RESULT: 45
--
COMPOUND: Nc1ncc(F)cc1-c1ccc2c3[nH]ncc3c(=O)n(CC(F)(F)F)c2c1
ENDPOINT NAME: inhibition at 0.1 µM
REPORTED RESULT: 46

// below: inhibition at 0.1 µM requested for another compound
stdin: Param item = `COC(=O)c1ccccc1-c1ccc2c3[nH]ncc3c(=O)n(CC(F)(F)F)c2c1` ; retrieve measured inhibition at 0.1 µM.
stdout: 41

* * *

# STUDY SYSTEM: human MetAP2 (Homo sapiens, UniProt P50579)
# Construct: made in house; host or cells: Sf9 insect cells (baculovirus)
# ASSAY OVERVIEW: MetAP2 enzymatic screening test (isolated enzyme, Met-Pro-Arg-pNa substrate, absorbance at 405 nm)
# Format: biochemical
# CONDITION LABEL: read-out: % inhibition hMETAP2 at 100 nM
Recorded inhibition at 0.1 µM values for a group of molecules are listed next.
Express it in %; write the number only.

MOLECULE: CCc1ncncc1-c1ccc2c3[nH]ncc3c(=O)n(CC(F)(F)F)c2c1 [Compound 143]
STUDY SYSTEM: human MetAP2 (Homo sapiens, UniProt P50579)
REPORTED RESULT: 43

stdin: Give the reported inhibition at 0.1 µM for CC(=O)Nc1ncc(C)cc1-c1ccc2c3[nH]ncc3c(=O)n(CC(F)(F)F)c2c1 [Compound 130] (system: human MetAP2 (Homo sapiens, UniProt P50579)).
stdout: 48

* * *

# STUDY SYSTEM: human MetAP2 (Homo sapiens)
# Construct: made in house; host or cells: Sf9 insect cells (baculovirus)
# ASSAY OVERVIEW: MetAP2 enzymatic screening test (isolated enzyme, Met-Pro-Arg-pNa substrate, absorbance at 405 nm)
# Assay type: biochemical
# CONDITION LABEL: read-out: % inhibition hMETAP2 at 100 nM
Hi, to clarify the labels: True covers inhibition at 0.1 µM from 40% upward, False covers anything below 40%.

See these solved cases before continuing.
COMPOUND: CCc1nc(-c2ccccc2-c2ccc3c4[nH]ncc4c(=O)n(CC(F)(F)F)c3c2)no1 [Compound 150]
ASSIGNED CATEGORY: True

COMPOUND: O=c1c2cn[nH]c2c2ccc(-c3ccccc3CCO)cc2n1CC(F)(F)F [Compound 131]
ASSIGNED CATEGORY: True

COMPOUND: CCC(=O)Nc1ccc(-c2ccc3c4[nH]ncc4c(=O)n(CC(F)(F)F)c3c2)c(C)n1 [Compound 147]
ASSIGNED CATEGORY: True

COMPOUND: COC(=O)c1cccc(-c2ccc3c4[nH]ncc4c(=O)n(CC(F)(F)F)c3c2)n1 [Compound 164]
ASSIGNED CATEGORY: False

COMPOUND: O=c1c2cn[nH]c2c2ccc(-c3ccc(F)cn3)cc2n1CC(F)(F)F [Compound 165]
ASSIGNED CATEGORY: False

COMPOUND: CCn1c(=O)c2cn[nH]c2c2ccc(-c3ccc(N)cc3C)cc21 [Compound 24]
ASSIGNED CATEGORY: True

COMPOUND: CCn1c(=O)c2cn[nH]c2c2ccc(-c3ccc(C(=O)N4CCOCC4)c(Cl)c3)cc21 [Compound 29]
ASSIGNED CATEGORY: True

COMPOUND: CC(C)NS(=O)(=O)c1ccccc1-c1ccc2c3[nH]ncc3c(=O)n(CC(F)(F)F)c2c1 [Compound 134]
ASSIGNED CATEGORY: True

stdin: Form field: inhibition at 0.1 µM at least 40%? Entry: CCn1c(=O)c2cn[nH]c2c2ccc(-c3cc(OC)ccc3F)cc21 [Compound 28]
stdout: True

stdin: Form field: inhibition at 0.1 µM at least 40%? Entry: CCn1c(=O)c2cn[nH]c2c2ccc(-c3ccc(C(=O)NCCCN(C)C)cc3)cc21 [Compound 9]
stdout: True

stdin: Form field: inhibition at 0.1 µM at least 40%? Entry: CCn1c(=O)c2cn[nH]c2c2ccc(-c3ccc(C(C)N4CCCC4)cc3)cc21 (stereo not shown) [Compound 22]
stdout: True

stdin: Form field: inhibition at 0.1 µM at least 40%? Entry: CCn1c(=O)c2cn[nH]c2c2ccc(-c3ccc(C(=O)N4CCNCC4)cc3)cc21 [Compound 18]
stdout: True

stdin: Form field: inhibition at 0.1 µM at least 40%? Entry: CCn1c(=O)c2cn[nH]c2c2ccc(-c3ccc(C(=O)NCCN(C)C)cc3)cc21 [Compound 13]
stdout: True

stdin: Form field: inhibition at 0.1 µM at least 40%? Entry: O=c1c2cn[nH]c2c2ccc(-c3ccccc3F)cc2n1CC(F)(F)F [Compound 3]
stdout: False

stdin: Form field: inhibition at 0.1 µM at least 40%? Entry: O=c1c2cn[nH]c2c2ccc(-c3cccc(F)n3)cc2n1CC(F)(F)F [Compound 163]
stdout: False

stdin: Form field: inhibition at 0.1 µM at least 40%? Entry: O=c1c2cn[nH]c2c2ccc(-c3ccccc3S(=O)(=O)N3CCCC3)cc2n1CC(F)(F)F [Compound 133]
stdout: True

* * *

Recorded inhibition at 0.1 µM values for a group of compounds are listed next.
# STUDY SYSTEM: human MetAP2 (Homo sapiens)
# Construct: made in house; host or cells: Sf9 insect cells (baculovirus)
# ASSAY OVERVIEW: MetAP2 enzymatic screening test (isolated enzyme, Met-Pro-Arg-pNa substrate, absorbance at 405 nm)
# Format: biochemical
# CONDITION LABEL: read-out: % inhibition hMETAP2 at 100 nM
Express it in %; write the number only.

Consider the following illustrative entries.
COMPOUND: CCNC(=O)c1cccc(-c2ccc3c4[nH]ncc4c(=O)n(CC)c3c2)c1 [Compound 35]
UNITS LABEL: %
inhibition at 0.1 µM: 62
--
COMPOUND: Cc1cc(-c2ccc3c4[nH]ncc4c(=O)n(CC(F)(F)F)c3c2)ccn1 [Compound 186]
UNITS LABEL: %
inhibition at 0.1 µM: 43
--
COMPOUND: CCn1c(=O)c2cn[nH]c2c2ccc(-c3ccc4[nH]ncc4c3)cc21 [Compound 34]
UNITS LABEL: %
inhibition at 0.1 µM: 62
--
COMPOUND: COC(=O)Cc1ccccc1-c1ccc2c3[nH]ncc3c(=O)n(CC(F)(F)F)c2c1 [Compound 144]
UNITS LABEL: %
inhibition at 0.1 µM: 43
--
COMPOUND: O=c1c2cn[nH]c2c2ccc(-c3ccccc3Cn3cncn3)cc2n1CC(F)(F)F [Compound 159]
UNITS LABEL: %
inhibition at 0.1 µM: 40
--
COMPOUND: COc1ccc(-c2ccc3c4[nH]ncc4c(=O)n(CC(F)(F)F)c3c2)c(C)n1 [Compound 138]
UNITS LABEL: %
inhibition at 0.1 µM: 44

stdin: Param item = CCn1c(=O)c2cn[nH]c2c2ccc(-c3ccc(C(N)=O)c(Cl)c3)cc21 [Compound 33] ; retrieve measured inhibition at 0.1 µM.
stdout: 62

stdin: Param item = COc1ccnc(-c2ccc3c4[nH]ncc4c(=O)n(CC(F)(F)F)c3c2)c1 [Compound 145] ; retrieve measured inhibition at 0.1 µM.
stdout: 42

stdin: Param item = O=c1c2cn[nH]c2c2ccc(-c3cc(Cl)cnc3F)cc2n1CC(F)(F)F [Compound 129] ; retrieve measured inhibition at 0.1 µM.
stdout: 36

stdin: Param item = CCn1c(=O)c2cn[nH]c2c2ccc(-c3cnc(N4CCNCC4)nc3)cc21 [Compound 20] ; retrieve measured inhibition at 0.1 µM.
stdout: 70

stdin: Param item = Cc1nc(N)ccc1-c1ccc2c3[nH]ncc3c(=O)n(CC(F)(F)F)c2c1 [Compound 142] ; retrieve measured inhibition at 0.1 µM.
stdout: 44

stdin: Param item = CCn1c(=O)c2cn[nH]c2c2ccc(-c3ccc(F)c(C(=O)NC)c3)cc21 [Compound 27] ; retrieve measured inhibition at 0.1 µM.
stdout: 67

stdin: Param item = CCn1c(=O)c2cn[nH]c2c2ccc(-c3ccc(C(C)N(C)C)cc3)cc21 (stereo not shown) [Compound 15] ; retrieve measured inhibition at 0.1 µM.
stdout: 74

stdin: Param item = N#Cc1cccc(-c2ccc3c4[nH]ncc4c(=O)n(CC(F)(F)F)c3c2)n1 [Compound 153] ; retrieve measured inhibition at 0.1 µM.
stdout: 41

stdin: Param item = O=c1c2cn[nH]c2c2ccc(-c3cc(Cl)cnc3Cl)cc2n1CC(F)(F)F [Compound 57] ; retrieve measured inhibition at 0.1 µM.
stdout: 38
